# Measured Target: AR (Homo sapiens)
# Sequence (P10275 1-920 T878A): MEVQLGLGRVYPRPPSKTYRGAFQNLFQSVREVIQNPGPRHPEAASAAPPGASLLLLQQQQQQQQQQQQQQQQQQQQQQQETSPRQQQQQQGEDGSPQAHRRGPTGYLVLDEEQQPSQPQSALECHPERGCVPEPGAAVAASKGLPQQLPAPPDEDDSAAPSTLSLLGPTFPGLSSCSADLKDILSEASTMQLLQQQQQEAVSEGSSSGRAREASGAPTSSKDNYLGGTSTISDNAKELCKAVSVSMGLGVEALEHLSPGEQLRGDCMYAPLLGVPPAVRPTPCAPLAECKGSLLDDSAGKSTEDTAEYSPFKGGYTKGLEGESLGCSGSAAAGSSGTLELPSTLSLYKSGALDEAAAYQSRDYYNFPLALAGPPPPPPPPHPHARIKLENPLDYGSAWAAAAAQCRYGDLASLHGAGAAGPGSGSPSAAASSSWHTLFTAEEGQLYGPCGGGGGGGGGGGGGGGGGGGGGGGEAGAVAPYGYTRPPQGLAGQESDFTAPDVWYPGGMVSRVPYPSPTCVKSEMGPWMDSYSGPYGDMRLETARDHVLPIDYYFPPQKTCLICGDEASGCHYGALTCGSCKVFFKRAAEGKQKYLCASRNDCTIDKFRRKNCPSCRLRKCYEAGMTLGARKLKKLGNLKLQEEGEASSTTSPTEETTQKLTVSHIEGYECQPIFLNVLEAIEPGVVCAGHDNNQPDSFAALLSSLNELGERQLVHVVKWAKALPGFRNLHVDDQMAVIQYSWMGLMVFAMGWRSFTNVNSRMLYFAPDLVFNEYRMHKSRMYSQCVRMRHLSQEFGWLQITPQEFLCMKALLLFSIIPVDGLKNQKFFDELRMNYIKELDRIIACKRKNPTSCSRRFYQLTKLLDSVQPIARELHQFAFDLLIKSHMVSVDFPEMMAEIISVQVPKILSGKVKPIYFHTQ
# Procedure Text: ARE-luciferase reporter assay in LNCaP cells (DHT-induced)
# Condition Info: 1 nM DHT, 24 h, normalized to cell viability, read-out: LNCaP ARE-luc IC50
Outcome Measure: IC50
Param answer (str): number followed by unit.

Noted for CC(C)(c1ccc(OCc2ccnc(N=S3(=O)CCNCC3)n2)cc1)c1cc(Cl)c(OCCCl)c(C#N)c1 [Compound 6] : its IC50 reads 3.5 µM

Noted for CC(C)(c1ccc(OCc2ccnc(N=S3(=O)CCCC3)n2)cc1)c1cc(Cl)c(OCCCl)c(C#N)c1 [Compound 2] : its IC50 reads 2.82 µM

Noted for CC(C)(c1ccc(OCc2ccnc(NS(C)(=O)=O)n2)cc1)c1cc(Cl)c(OCCCl)c(C#N)c1 [Compound AA, reference compound] : its IC50 reads 12.6 µM

Noted for CC(C)(c1ccc(C#Cc2cnc(NS(C)(=O)=O)nc2)cc1)c1cc(Cl)c(OCCCl)c(C#N)c1 [Compound 60] : its IC50 reads 4.7 µM

###

# Measured Target: AR-mEGFP nuclear puncta in LNCaP cells (Homo sapiens, UniProt P10275)
# Procedure Text: AR phase separation inhibition IC50 testing (nuclear puncta imaging)
# Condition Info: LNCaP, compound 3 h before 20 nM DHT, 3 h DHT
I'd be grateful if you could share measured pIC50 for these entries.
In plain terms, pIC50 is the concentration in mol/L turned into minus its base-10 logarithm.

Item: CC(C)(c1ccc(C#Cc2cnc(NS(C)(=O)=O)nc2)cc1)c1cc(Cl)c(OCCCl)c(C#N)c1 | System: AR-mEGFP nuclear puncta in LNCaP cells (Homo sapiens, UniProt P10275) | pIC50: 5.60

Item: CC(C)(c1ccc(OCc2ccnc(N=S3(=O)CCNCC3)n2)cc1)c1cc(Cl)c(OCCCl)c(C#N)c1 | System: AR-mEGFP nuclear puncta in LNCaP cells (Homo sapiens, UniProt P10275) | pIC50: 5.44

###

# Test system: DU145 cells
# Procedure Text: Cell proliferation assay (CellTiter-Glo), DU145
# Type: cell-based
# Condition Info: Homo sapiens, DU-145, 96 h; 4 days; read-out: DU145 IC50 AR-negative (cell proliferation)
pIC50: −log10 of the molar value.
Outcome Measure: pIC50

Noted for CC(C)(c1ccc(OCc2ccnc(N=S3(=O)CCNCC3)n2)cc1)c1cc(Cl)c(OCCCl)c(C#N)c1 [Compound 6] : its pIC50 reads < 4.70

Noted for CC(C)(c1ccc(OCc2ccnc(NS(C)(=O)=O)n2)cc1)c1cc(Cl)c(OCCCl)c(C#N)c1 [Compound AA, reference compound] : its pIC50 reads 4.76

Noted for CC(C)(c1ccc(OCc2ccnc(N=S3(=O)CCCC3)n2)cc1)c1cc(Cl)c(OCCCl)c(C#N)c1 [Compound 2] : its pIC50 reads < 4.70

###

# Measured Target: AR V7 (Homo sapiens)
# Procedure Text: ARE-luciferase reporter assay in HEK293T cells cotransfected with AR-V7
# Format: cell-based
# Set-up: host or cells: HEK293T
# Condition Info: HEK293T cotransfected with AR-V7, hormone-starved, 24 h; read-out: HEK293T(V7) ARE-luc IC50
Outcome Measure: pIC50
In plain terms, pIC50 is the concentration in mol/L turned into minus its base-10 logarithm.

Noted for CC(C)(c1ccc(OCc2ccnc(N=S3(=O)CCCC3)n2)cc1)c1cc(Cl)c(OCCCl)c(C#N)c1 : its pIC50 reads 5.64

Noted for CC(C)(c1ccc(OCc2ccnc(N=S3(=O)CCNCC3)n2)cc1)c1cc(Cl)c(OCCCl)c(C#N)c1 : its pIC50 reads 5.68

Noted for CC(C)(c1ccc(C#Cc2cnc(NS(C)(=O)=O)nc2)cc1)c1cc(Cl)c(OCCCl)c(C#N)c1 : its pIC50 reads 5.05

###

# Measured Target: AR V7 (Homo sapiens, UniProt P10275)
# Procedure Text: ARE-luciferase reporter assay in 22Rv1 cells (endogenous AR-V7)
# Type: cell-based
# Set-up: 22Rv1(Cobioer) prostate cancer cell line, which expresses endogenous AR-V7; host or cells: 22Rv1
# Condition Info: 22Rv1, hormone-starved, 24 h; read-out: 22Rv1 ARE-luc IC50
I'd be grateful if you could share measured IC50 for these entries.
A number alone suffices; assume µM.

Noted for CC(C)(c1ccc(OCc2ccnc(N=S3(=O)CCCC3)n2)cc1)c1cc(Cl)c(OCCCl)c(C#N)c1 : its IC50 reads 4.4

Noted for CC(C)(c1ccc(OCc2ccnc(N=S3(=O)CCNCC3)n2)cc1)c1cc(Cl)c(OCCCl)c(C#N)c1 : its IC50 reads 8.6

Reference source for all entries: patent US20240150301A1
